- SYSTEM_NAME: 5-hydroxytryptamine receptor 2C (Homo sapiens, UniProt P28335)
- Sequence (P28335 whole entry): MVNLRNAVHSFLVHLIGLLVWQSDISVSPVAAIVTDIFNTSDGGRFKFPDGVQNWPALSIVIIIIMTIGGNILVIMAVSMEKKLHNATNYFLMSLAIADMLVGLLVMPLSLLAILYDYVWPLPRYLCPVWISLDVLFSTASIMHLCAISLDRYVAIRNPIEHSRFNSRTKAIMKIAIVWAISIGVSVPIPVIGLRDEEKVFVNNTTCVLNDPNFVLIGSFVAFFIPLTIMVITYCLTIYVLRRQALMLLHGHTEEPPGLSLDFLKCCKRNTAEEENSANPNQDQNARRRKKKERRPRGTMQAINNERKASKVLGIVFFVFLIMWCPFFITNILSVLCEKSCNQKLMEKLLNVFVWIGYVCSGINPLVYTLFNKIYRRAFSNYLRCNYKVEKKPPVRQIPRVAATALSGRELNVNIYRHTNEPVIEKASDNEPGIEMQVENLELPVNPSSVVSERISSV
- MEASUREMENT_PROTOCOL: Displacement of [3H]Mesulergine from human recombinant serotonin 5-HT2C expressed in CHO-K1 cells
I'd appreciate it if you could supply IC50 values for the items below.

# count of solved cases: 5
- COMPOUND: "CCN(CC)CCn1c(NCc2ccncc2)nc2ccccc21"
  IC50: "> 10 µM"
- COMPOUND: "CCOC(=O)c1c(C)oc2ncnc(NCCN3CCOCC3)c12"
  IC50: "> 10 µM"
- COMPOUND: "CCOC(=O)C1=CCc2nc(C)nc(NCCN(C)C)c21"
  IC50: "4.48 µM"
- COMPOUND: "CC(=O)Nc1c(C(=O)N2CCN(C)CC2)oc2ccccc12"
  IC50: "5.29 µM"
- COMPOUND: "Cc1nnc(SCc2cc(=O)n3nc(C4CC4)sc3n2)[nH]1"
  IC50: "> 10 µM"

Would you mind listing IC50 for each of the following compounds?
1. CN1CCN(CCNC(=O)c2cc3ccc4cccnc4c3[nH]2)CC1
2. CCCCN(C)CCNc1nc(C)nc2oc(C)c(C(=O)OCC)c12
3. Cc1ccc(NC(=O)N2CCN3CCCCC3C2)cc1C (stereo unspecified)

1: > 10 µM; 2: 4.17 µM; 3: > 10 µM

Would you mind listing IC50 for each of the following compounds?
1. COc1ccc2c3c([nH]c2c1)[C@@](C)(C(=O)O)NCC3
2. COCCCNc1nc(Nc2ccc(F)cc2)c2cnn(C)c2n1
3. Cc1ccc(C2=NC3(CCNCC3)NC2=O)cc1C

["> 10 µM", "> 10 µM", "> 10 µM"]

Would you mind listing IC50 for each of the following compounds?
1. Cc1cccc(C(=O)Nc2nn3c(-c4ccccc4C)nnc3s2)c1
2. CC1CCCCN1CCNC(=O)c1noc2c1CCc1sccc1-2 (stereo unspecified)
3. CCC(=O)Nc1nn2c(-c3cccc(C)c3)nnc2s1

1: > 10 µM; 2: > 10 µM; 3: 9.22 µM

Would you mind listing IC50 for each of the following compounds?
1. Cn1ncc2c(Nc3ccc(F)cc3)nc(NCCCO)nc21
2. CN(C)CCNC(=O)c1cc2ccccc2[nH]1
3. Cc1ccccc1NC(=O)N1CCN2CCCCC2C1 (stereo unspecified)
4. CCNc1nc(Nc2ccc(F)cc2)c2cnn(C)c2n1
5. Cn1ncc2c(Nc3ccc(F)cc3)nc(NC3CCCC3)nc21
6. CCOC(=O)c1noc2ncnc(N3CCN(C)CC3)c12
7. CCCNc1nc2ccc(C)cc2n2nnnc12

["> 10 µM", "0.424 µM", "> 10 µM", "> 10 µM", "> 10 µM", "2.05 µM", "> 10 µM"]

Would you mind listing IC50 for each of the following compounds?
1. CCc1ccccc1NC(=O)CC1NCCNC1=O (stereo unspecified)
2. Cc1ccc(CCNc2nc3ccc(C)cc3n3nnnc23)cc1
3. CCN1Cc2cccc(CNc3ccc(C)c(F)c3)c2C1
4. CCNc1nc(Nc2ccccc2)c2cnn(C)c2n1

1: > 10 µM; 2: > 10 µM; 3: 5.63 µM; 4: > 10 µM

So for "Cn1c(=O)n(C)c2cc(CNCCN3CCOCC3)ccc21" , the logged IC50 turned out to be > 10 µM
